From: paper PMC3190583

Assay: Single-dose pharmacokinetics of pantoprazole delayed-release tablet, study 2
Type: in vivo, human
Settings: human, plasma, po, 40 mg
QUANTITY_KIND: Tmax (h)

INSERT INTO assay_data (molecule, value_unit, reported) VALUES
  ('COc1ccnc(C[S+]([O-])c2nc3ccc(OC(F)F)cc3[nH]2)c1OC (stereo not shown)', 'h', 2);

###

Experiment: Single-dose pharmacokinetics of pantoprazole delayed-release tablet, study 1
Format: in vivo, human
Conditions: human, plasma, po, 20 mg
QUANTITY_KIND: Tmax (h)

INSERT INTO measurements (compound, quantity_kind, reported) VALUES
  ('COc1ccnc(C[S+]([O-])c2nc3ccc(OC(F)F)cc3[nH]2)c1OC (stereo not shown)', 'Tmax', 2);
